# Test system: NCI-H322M
# assayProtocol: relative viability (nuclei count vs DMSO), 5 days (fraction); higher = more cells survive
# reportedConditions: first compound 4 µM
Friendly reminder: relative viability below 0.5 is Condition met, at or above is Condition not met.

Query :: # strict comparison: is reported relative viability < 0.5? input = Cc1sc2c(c1C)C(c1ccc(Cl)cc1)=N[C@@H](CC(=O)OC(C)(C)C)c1nnc(C)n1-2 [JQ1] + Cc1cc(Nc2cc(N3CCN(C)CC3)nc(Sc3ccc(NC(=O)C4CC4)cc3)n2)n[nH]1 [Tozasertib] (partner 0.1 µM)
Result :: Condition met

Query :: For Cc1sc2c(c1C)C(c1ccc(Cl)cc1)=N[C@@H](CC(=O)OC(C)(C)C)c1nnc(C)n1-2 [JQ1] + C[C@@H](Oc1cc(-c2cnn(C3CCNCC3)c2)cnc1N)c1c(Cl)ccc(F)c1Cl [Crizotinib] (partner 1 µM) then?
Result :: Condition met

Query :: Now consider Cc1sc2c(c1C)C(c1ccc(Cl)cc1)=N[C@@H](CC(=O)OC(C)(C)C)c1nnc(C)n1-2 [JQ1] + CC(C)C[C@H](NC(=O)[C@H](Cc1ccccc1)NC(=O)c1cnccn1)B(O)O [Bortezomib] (partner 0.002 µM) .
Result :: Condition not met

Query :: # iterate: Cc1sc2c(c1C)C(c1ccc(Cl)cc1)=N[C@@H](CC(=O)OC(C)(C)C)c1nnc(C)n1-2 [JQ1] + O=C(c1cc(Cc2n[nH]c(=O)c3ccccc23)ccc1F)N1CCN(C(=O)C2CC2)CC1 [Olaparib] (partner 8 µM)
Result :: Condition met

Query :: Okay, and Cc1sc2c(c1C)C(c1ccc(Cl)cc1)=N[C@@H](CC(=O)OC(C)(C)C)c1nnc(C)n1-2 [JQ1] + CS(=O)(=O)CCNCc1ccc(-c2ccc3ncnc(Nc4ccc(OCc5cccc(F)c5)c(Cl)c4)c3c2)o1 [Lapatinib] (partner 2 µM) ?
Result :: Condition met

Query :: Consider next the compound Cc1sc2c(c1C)C(c1ccc(Cl)cc1)=N[C@@H](CC(=O)OC(C)(C)C)c1nnc(C)n1-2 [JQ1] + N=C(N)NC(=N)NCCc1ccccc1 [Phenformin] (partner 250 µM) in the same way.
Result :: Condition met

----------
# Test system: NCI-H1650
# assayProtocol: relative viability (nuclei count vs DMSO), 5 days (fraction); higher = more cells survive
# reportedConditions: first compound 0.08 µM
# label = 1 if relative viability < 0.8 else 0

Query :: hey, is relative viability for O=c1[nH]c2ccccc2n1C1CCN(CCCC(c2ccc(F)cc2)c2ccc(F)cc2)CC1 [Pimozide] + CS(=O)(=O)N1CCN(Cc2cc3nc(-c4cccc5[nH]ncc45)nc(N4CCOCC4)c3s2)CC1 [Pictilisib] (partner 1 µM) lower than 0.8 or not?
Result :: 1

Query :: What would you report for O=c1[nH]c2ccccc2n1C1CCN(CCCC(c2ccc(F)cc2)c2ccc(F)cc2)CC1 [Pimozide] + CS(=O)(=O)CCNCc1ccc(-c2ccc3ncnc(Nc4ccc(OCc5cccc(F)c5)c(Cl)c4)c3c2)o1 [Lapatinib] (partner 2 µM) ?
Result :: 1

Query :: Next compound: O=c1[nH]c2ccccc2n1C1CCN(CCCC(c2ccc(F)cc2)c2ccc(F)cc2)CC1 [Pimozide] + O=C(c1cc(Cc2n[nH]c(=O)c3ccccc23)ccc1F)N1CCN(C(=O)C2CC2)CC1 [Olaparib] (partner 8 µM)
Result :: 1

Query :: Lookup O=c1[nH]c2ccccc2n1C1CCN(CCCC(c2ccc(F)cc2)c2ccc(F)cc2)CC1 [Pimozide] + C[C@@H](Oc1cc(-c2cnn(C3CCNCC3)c2)cnc1N)c1c(Cl)ccc(F)c1Cl [Crizotinib] (partner 1 µM)
Result :: 0

Query :: Next up: Cc1cnc(-c2cnc(NCCNc3ccc(C#N)cn3)nc2-c2ccc(Cl)cc2Cl)[nH]1 + N=C(N)NC(=N)NCCc1ccccc1 [Phenformin] (partner 250 µM)
Result :: 1

Query :: Continue with O=c1[nH]c2ccccc2n1C1CCN(CCCC(c2ccc(F)cc2)c2ccc(F)cc2)CC1 [Pimozide] + CC1(C)CCC(c2ccc(Cl)cc2)=C(CN2CCN(c3ccc(C(=O)NS(=O)(=O)c4ccc(N[C@H](CCN5CCOCC5)CSc5ccccc5)c(S(=O)(=O)C(F)(F)F)c4)cc3)CC2)C1 [Navitoclax] (partner 0.5 µM)
Result :: 0

Query :: What do you get for Cc1cnc(-c2cnc(NCCNc3ccc(C#N)cn3)nc2-c2ccc(Cl)cc2Cl)[nH]1 + CCNC(=O)c1noc(-c2cc(C(C)C)c(O)cc2O)c1-c1ccc(CN2CCOCC2)cc1 [Luminespib] (partner 0.01 µM) ?
Result :: 1

----------
# System: LCLC-97TM1
# assayProtocol: relative viability (nuclei count vs DMSO), 5 days (fraction); higher = more cells survive
# reportedConditions: first compound 5 µM
Labelling field: enter fulfilled if recorded relative viability is less than 0.3. Enter not fulfilled if it equals or exceeds that cut-off.

Query :: Consider the compound O=C(O)CCCCC(CCSCc1ccccc1)SCc1ccccc1 (stereo not given) [CPI-613] + COc1cc2c(Oc3ccc(NC(=O)C4(C(=O)Nc5ccc(F)cc5)CC4)cc3F)ccnc2cc1OCCCN1CCOCC1 [Foretinib] (partner 0.25 µM) . Is its relative viability strictly less than 0.3?
Result :: not fulfilled

Query :: Subsequent entry: O=C(O)CCCCC(CCSCc1ccccc1)SCc1ccccc1 (stereo not given) [CPI-613] + CCNC(=O)c1noc(-c2cc(C(C)C)c(O)cc2O)c1-c1ccc(CN2CCOCC2)cc1 [Luminespib] (partner 0.01 µM)
Result :: not fulfilled

Query :: Next compound up: O=C(O)CCCCC(CCSCc1ccccc1)SCc1ccccc1 (stereo not given) [CPI-613] + CS(=O)(=O)N1CCN(Cc2cc3nc(-c4cccc5[nH]ncc45)nc(N4CCOCC4)c3s2)CC1 [Pictilisib] (partner 1 µM)
Result :: fulfilled

Query :: For O=C(O)CCCCC(CCSCc1ccccc1)SCc1ccccc1 (stereo not given) [CPI-613] + Nc1ncn([C@H]2C[C@H](O)[C@@H](CO)O2)c(=O)n1 [Decitabine] (partner 2 µM) then?
Result :: fulfilled

Query :: Follow-up entry: O=C(O)CCCCC(CCSCc1ccccc1)SCc1ccccc1 (stereo not given) [CPI-613] + CC(=O)Nc1cccc(-n2c(=O)n(C3CC3)c(=O)c3c(Nc4ccc(I)cc4F)n(C)c(=O)c(C)c32)c1 [Trametinib] (partner 0.02 µM)
Result :: fulfilled

----------
# Test system: NCI-H2087
# assayProtocol: relative viability (nuclei count vs DMSO), 5 days (fraction); higher = more cells survive
# reportedConditions: first compound 0.08 µM
Please respond with reported relative viability for every item in the list.
Field format: numeric only.

Query :: Item under review: Cc1cnc(-c2cnc(NCCNc3ccc(C#N)cn3)nc2-c2ccc(Cl)cc2Cl)[nH]1 + CC(=O)Nc1cccc(-n2c(=O)n(C3CC3)c(=O)c3c(Nc4ccc(I)cc4F)n(C)c(=O)c(C)c32)c1 [Trametinib] (partner 0.02 µM) . Reported relative viability?
Result :: 0.203

Query :: Queued: Cc1cnc(-c2cnc(NCCNc3ccc(C#N)cn3)nc2-c2ccc(Cl)cc2Cl)[nH]1 + N=C(N)NC(=N)NCCc1ccccc1 [Phenformin] (partner 250 µM)
Result :: 0.571

Query :: How about O=c1[nH]c2ccccc2n1C1CCN(CCCC(c2ccc(F)cc2)c2ccc(F)cc2)CC1 [Pimozide] + Cc1cc(Nc2cc(N3CCN(C)CC3)nc(Sc3ccc(NC(=O)C4CC4)cc3)n2)n[nH]1 [Tozasertib] (partner 0.1 µM) ?
Result :: 0.262

Query :: Repeat for the following compound: Cc1cnc(-c2cnc(NCCNc3ccc(C#N)cn3)nc2-c2ccc(Cl)cc2Cl)[nH]1 + O=C(c1cc(Cc2n[nH]c(=O)c3ccccc23)ccc1F)N1CCN(C(=O)C2CC2)CC1 [Olaparib] (partner 8 µM)
Result :: 0.671

----------
Record form. Attribute: relative viability. Fill in for each entry.
# Tested on: NCI-H3122
# assayProtocol: relative viability (nuclei count vs DMSO), 5 days (fraction); higher = more cells survive
# reportedConditions: first compound 2.53 µM

Query :: Query: relative viability; subject: O=c1[nH]c2ccccc2n1C1CCN(CCCC(c2ccc(F)cc2)c2ccc(F)cc2)CC1 [Pimozide] + Cc1nc(Nc2ncc(C(=O)Nc3c(C)cccc3Cl)s2)cc(N2CCN(CCO)CC2)n1 [Dasatinib] (partner 0.075 µM)
Result :: 0.851

Query :: // same read-out, input: Cc1cnc(-c2cnc(NCCNc3ccc(C#N)cn3)nc2-c2ccc(Cl)cc2Cl)[nH]1 + Cc1cc(Nc2cc(N3CCN(C)CC3)nc(Sc3ccc(NC(=O)C4CC4)cc3)n2)n[nH]1 [Tozasertib] (partner 0.1 µM)
Result :: 0.33

Query :: Further, for O=c1[nH]c2ccccc2n1C1CCN(CCCC(c2ccc(F)cc2)c2ccc(F)cc2)CC1 [Pimozide] + CCNC(=O)c1noc(-c2cc(C(C)C)c(O)cc2O)c1-c1ccc(CN2CCOCC2)cc1 [Luminespib] (partner 0.01 µM) ?
Result :: 0.0832

Query :: What do you have for Cc1cnc(-c2cnc(NCCNc3ccc(C#N)cn3)nc2-c2ccc(Cl)cc2Cl)[nH]1 + CC(=O)Nc1cccc(-n2c(=O)n(C3CC3)c(=O)c3c(Nc4ccc(I)cc4F)n(C)c(=O)c(C)c32)c1 [Trametinib] (partner 0.02 µM) ?
Result :: 0.233
